- assayed system: GHSR1a receptor (Homo sapiens)
- Construct: expressed in transfected cells; host or cells: HEK293 (membranes)
- assay protocol: 125I-Ghrelin binding assay
- measurement context: Binding pKi, displacement of 125I-ghrelin (0.053 nM), membranes of HEK293 cells transfected with GHSR1a; Cheng-Prussoff; '—' not defined
measure: pKi
Give bare numbers, as −log10 of the molar value.

// COc1cccc2c(C(=O)c3ccccc3)cn(CCCN3CCCN(CCc4ccccc4)CC3)c12 : pKi value = 7.60

Below are some compounds; for each one, tell me its pKi.
1. CC(=O)c1cn(CCCN2CCCN(CCc3ccccc3)CC2)c2c(Br)cccc12
2. COc1cccc2c(C(=O)NCc3cccc(C)c3)cn(CCCN3CCC(c4nc(-c5cccnc5)no4)CC3)c12
3. COc1cccc2c(C(C)=O)cn(CCCN3C4CCC3CC(OCC3CC3)C4)c12 (stereo not drawn)
4. COc1cccc2c(C(=O)NCc3cccc(C)c3)cn(CCCN3CCC(Oc4ccc(Cl)cc4)CC3)c12

1. 7.10
2. 6.80
3. 5.80
4. 6.90

Below are some compounds; for each one, tell me its pKi.
1. COc1cccc2c(C(=O)NCc3cccc(C)c3)cn(CCCN3C4CCC3CC(CC(=O)c3ccc(Cl)cc3)C4)c12 (stereo not drawn)
2. COc1cccc2c(C(=O)c3ccccc3)cn(CCCN3CCN(CCOc4ccc(Cl)cc4)CC3)c12
3. COc1cccc2c(C(=O)NCc3cccc(Cl)c3)cn(CCCN3CCC(c4nc5ccccc5s4)CC3)c12
4. COc1cccc2c(C(=O)NCc3cccc(C)c3)cn(CCCN3CCCN(CCc4ccccc4)CC3)c12

1: 7.80; 2: 6.90; 3: 6.60; 4: 7.80

---

- assayed system: Ghrelin receptor (Homo sapiens)
- assay protocol: Receptor Selection and Amplification Technology (R-SAT) assay
- Format: cell-based
- Set-up: expressed in transfected cells; host or cells: NIH3T3
Threshold-based label: RSAT Eff(%) under 40% gives Fulfilled, RSAT Eff(%) not under 40% gives Not fulfilled.

Hi there! Is RSAT Eff(%) for COc1cccc2c(C(=O)C3CC3)cn(CCCN3CCC(N4C(=O)Cc5ccccc54)CC3)c12 below 40%, do you know?
Not fulfilled

Hi there! Is RSAT Eff(%) for O=C(NCc1cccc(Cl)c1)c1cn(CCCN2CCC(Oc3ccc(F)cc3)CC2)c2ccccc12 [drawing 659] below 40%, do you know?
Not fulfilled

Hi there! Is RSAT Eff(%) for COc1cccc2c(C(=O)NCc3cccc(C)c3)cn(CCCN3CCC(N4C(=O)Cc5ccccc54)CC3)c12 below 40%, do you know?
Not fulfilled

---

Exercise: for every item that follows, state its recorded log10 IC50.
- assayed system: UniProt Q92847
- assay protocol: Receptor Selection and Amplification Technology (R-SAT) assay
- Assay type: cell-based
- Design: expressed in transfected cells; host or cells: NIH3T3
- measurement context: negative logarithm of ligand concentration causing 50% inhibition of constitutive receptor response; transfected NIH3T3 cells; '—' not defined (nd used separately); read-out: RSAT pIC50 (converted)
Friendly reminder: values = log10 of IC50, unit nM.

Please review the entries below; each comes with its answer.
// COc1cccc2c(C(=O)NCc3cccc(C)c3)cn(CCCN3C4CCC3CC(Oc3ccccc3Cl)C4)c12 (stereo not drawn) : log10 IC50 value = 0.70

// CC(=O)c1cn(CCCN2C3CCC2CC(Oc2ccccc2Cl)C3)c2c(C#N)cccc12 (stereo not drawn) : log10 IC50 value = 1.30

// CC(=O)c1cn(CCCN2CCN(C(C)c3ccccc3)CC2)c2cc(Br)ccc12 (stereo not drawn) : log10 IC50 value = 2.40

// CC(=O)c1cn(CCCN2CCC(Oc3ccc(F)cc3)CC2)c2cc(Br)ccc12 : log10 IC50 value = 3.40

// Cc1cccc(CNC(=O)n2cc(CCCN3C4CCC3CC(CCc3ccccc3)C4)c3ccccc32)c1 (stereo not drawn) : log10 IC50 value = 1.50

Below are some molecules; for each one, tell me its log10 IC50.
1. CC(C)CNC(=O)c1cn(CCCN2CCC(Oc3ccc(F)cc3)CC2)c2ccccc12
2. O=C(c1cn(CCCN2CCC(Oc3ccc(Cl)cc3)CC2)c2ccccc12)C(F)(F)F

[2.70, 3.20]

Below are some molecules; for each one, tell me its log10 IC50.
1. CCCCC(=O)c1cn(CCCN2CCC(Oc3ccccc3Cl)CC2)c2ccc(OC)cc12
2. CC(=O)c1cn(CC(O)CN2CCC(c3nc4ccccc4s3)CC2)c2ccccc12 (stereo not drawn)

1. 2.40
2. 2.30

---

Exercise: for every item that follows, state its recorded Ki.
- assayed system: GHSR1a receptor (Homo sapiens, UniProt Q92847)
- Construct: expressed in transfected cells; host or cells: HEK293 (membranes)
- Sequence (Q92847 whole entry): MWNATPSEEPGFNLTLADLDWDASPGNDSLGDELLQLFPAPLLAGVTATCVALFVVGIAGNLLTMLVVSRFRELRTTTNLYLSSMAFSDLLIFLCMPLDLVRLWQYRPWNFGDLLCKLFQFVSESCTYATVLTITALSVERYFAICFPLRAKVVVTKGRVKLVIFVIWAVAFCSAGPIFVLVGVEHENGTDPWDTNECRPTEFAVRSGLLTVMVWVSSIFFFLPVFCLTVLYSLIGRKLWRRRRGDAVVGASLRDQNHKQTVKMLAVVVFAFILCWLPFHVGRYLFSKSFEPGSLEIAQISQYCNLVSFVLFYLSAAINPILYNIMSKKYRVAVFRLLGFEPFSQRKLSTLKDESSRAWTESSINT
- assay protocol: 125I-Ghrelin binding assay
- measurement context: displacement of 125I-ghrelin (0.053 nM), membranes of HEK293 cells transfected with GHSR1a; Cheng-Prussoff; '—' not defined; read-out: Binding pKi (converted)
One number for each entry, in nM.

Please review the entries below; each comes with its answer.
// COc1cccc2c(C#N)cn(CCCN3C4CCC3CC(CCc3ccc(Cl)cc3)C4)c12 (stereo not drawn) : Ki value = 251

// CCCCC[C@H]1C[C@H]2CC[C@@H](C1)N2CCCn1cc(C(C)=O)c2cccc(Br)c21 : Ki value = 158

// COc1cccc2c(C(=O)c3ccccc3)cn(CCCN3CCC(Oc4ccc(F)cc4)CC3)c12 : Ki value = 1260

Below are some compounds; for each one, tell me its Ki.
1. CC(=O)c1cn(CCCN2C3CCC2CC(Oc2ccc(Cl)cc2)C3)c2c(C)cccc12 (stereo not drawn)
2. COc1cccc2c(C#N)cn(CCCN3CCC(Oc4cccc(Cl)c4)CC3)c12
3. COc1ccccc1C1CCN(CCCn2cc(C(C)=O)c3cccc(Br)c32)CC1
4. CC(=O)c1cn(CCCN2CCC(C(=O)c3ccccc3)CC2)c2c(Br)cccc12

126
39.8
316
1580

Below are some compounds; for each one, tell me its Ki.
1. Cc1cccc(CNC(=O)n2cc(CCCN3C4CCC3CC(CCc3ccccc3)C4)c3ccccc32)c1 (stereo not drawn)
2. O=C(CC1CC2CCC(C1)N2CCCn1cc(C(=O)C(F)(F)F)c2cccnc21)c1ccc(Cl)cc1 (stereo not drawn)

1. 158
2. 631

---

- assayed system: Ghrelin receptor (Homo sapiens, UniProt Q92847)
- Sequence (Q92847 whole entry): as above
- assay protocol: Receptor Selection and Amplification Technology (R-SAT) assay
- Assay type: cell-based
- Parameters: expressed in transfected cells; host or cells: NIH3T3
- measurement context: read-out: RSAT Eff(%)
measure: Emax (%)
Give bare numbers, in %.

Please review the entries below; each comes with its answer.
// COc1cccc2c(C(=O)NCc3cccc(C)c3)cn(CCCN3C4CCC3CC(CCc3ccc(Cl)cc3)C4)c12 (stereo not drawn) : Emax value = 77

// COc1cccc2c(C(=O)Cc3ccccc3)cn(CCCN3CCC4(CC3)CC(=O)c3ccccc3O4)c12 : Emax value = 98

// COc1cccc2c(C(=O)NCc3cccc(Cl)c3)cn(CCCNCCOc3ccccc3)c12 : Emax value = 120

// CCCCC1CCN(CCCn2cc(C(=O)NCC(C)C)c3cccc(OC)c32)CC1 : Emax value = 93

Below are some compounds; for each one, tell me its Emax.
1. COc1cccc2c(C(=O)NCC(C)C)cn(CCCNC3Cc4ccccc4C3)c12
2. CC(=O)c1cn(CC(O)CN2CCN(C(C)c3ccccc3)CC2)c2ccccc12 (stereo not drawn)
3. COc1cccc2c(C(=O)C3CC3)cn(CCCN3CCC4(CC3)CC(=O)c3ccccc3O4)c12
4. CC(=O)c1cn(CCCN2C3CCC2CC(CC(=O)c2ccccc2)C3)c2c(Cl)cccc12 (stereo not drawn)
5. CC(=O)c1cn(CCCN2CCC(Cc3ccccc3Cl)C2)c2c(Cl)cccc12 (stereo not drawn)

[102, 23, 106, 85, 37]

---

- assayed system: GHSR1a receptor (Homo sapiens, UniProt Q92847)
- Construct: expressed in transfected cells; host or cells: HEK293 (membranes)
- assay protocol: 125I-Ghrelin binding assay
- measurement context: displacement of 125I-ghrelin (0.053 nM), membranes of HEK293 cells transfected with GHSR1a; Cheng-Prussoff; '—' not defined; read-out: Binding pKi (converted)
measure: Ki (nM)
Numbers only, in nM.

Please review the entries below; each comes with its answer.
// COc1cccc2c(C(C)=O)cn(CCCN3CCN(c4ccc(F)cc4)CC3)c12 : Ki value = 501

// COc1cccc2c(C(=O)Cc3ccccc3)cn(CCCN3C4CCC3CC(CCc3ccccc3)C4)c12 (stereo not drawn) : Ki value = 10

// COc1cccc2c(C(C)=O)cn(CCCN3CCN(c4c(C)cccc4C)CC3)c12 : Ki value = 1000

// COc1cccc2c(C(=O)NCC(C)C)cn(CCCN3CCC(Oc4ccc(F)cc4)CC3)c12 : Ki value = 126

// O=C(c1cn(CCCN2CCCN(Cc3ccccc3Cl)CC2)c2ncccc12)C(F)(F)F : Ki value = 50.1

Below are some compounds; for each one, tell me its Ki.
1. CC(=O)c1cn(CCCN2CCCN(Cc3ccccc3Cl)CC2)c2c(C#N)cccc12
2. COc1cccc2c(C(C)=O)cn(CCCN3CCC(Cc4ccccc4)CC3)c12
3. COc1cccc2c(C(C)=O)cn(CCCN3C4CC[C@H]3C[C@@H](Oc3ccc(Cl)cc3)C4)c12
4. CC(=O)c1cn(CCCN2CCCC(Cc3ccccc3Cl)C2)c2c(C#N)cccc12 (stereo not drawn)

[63.1, 794, 200, 794]
